# System: CP185
# measurement-protocol: qHTS profiling for inhibitors of Plasmodium falciparum proliferation (AID 504749); also: nearly all actives have a fitted effect of over 60% in size
# measurement-context: P. falciparum in erythrocytes, SYBR Green DNA, 72 h; series mostly up to 28.7 µM
Inconclusive results are not listed. Activity calls are given as the source filed them. Calls follow the shape of the dose curve; as a rule, active = well fitted inhibition curve with a large enough effect; inconclusive = small, poorly fitted or top-dose-only effect; inactive = flat fitted curve, though single readings scatter.
// one of active, inactive, no free text

Query: Each compound tested received a call. Report the one for `CCOc1ccccc1O[C@@H](c1ccccc1)[C@@H]1CNCCO1` .
Result: inactive

Query: Record request — test call for CCC(C(=O)C(C)C(O)C(C)CCc1ccc(C)c(O)c1C(=O)O)C1OC(CC)(C2CC[C@@](O)(CC)C(C)O2)CC1C (stereo partly drawn)
Result: active

Query: Fill in: this test's call for CC(=O)OC1C([N+]2(C)CCCCC2)C[C@H]2C3CC[C@H]4C[C@H](OC(C)=O)C([N+]5(C)CCCCC5)CC4(C)C3CCC12C (stereo partly drawn) is ___
Result: inactive

Query: So what was the verdict on O=C1Oc2ccccc2C(=O)C1C(CC(O)c1ccc(-c2ccc(Br)cc2)cc1)c1ccccc1 (stereo not drawn) in this test?
Result: inactive

Query: Name the outcome recorded for `NC(=O)OC[C@@H]1[C@H](NC(=O)/C(=N/OCC(=O)O)c2csc(N)n2)C(=O)N1S(=O)(=O)O` in the assay.
Result: inactive

Query: In this assay, the call recorded for `C[S+](C)CC[C@H](N)C(=O)O` was what?
Result: inactive

Query: State the result this test recorded for Cc1cc2nc3c(=O)[nH]c(=O)nc-3n(CC(O)C(O)C(O)COP(=O)(O)O)c2cc1C (stereo not drawn) .
Result: inactive

Query: Just curious, what result did OCCN1CC(O)C(O)C(O)C1CO (stereo not drawn) get here?
Result: inactive

Query: Can you look up the reported call for OCC1O[C@@H](O[C@@H]2C(CO)OC(O)C(O)C2O)C(O)C(O)C1O (stereo partly drawn) for me?
Result: inactive

Query: Status in this test for CC1(C)SC2C(NC(=O)C(C(=O)O)c3ccccc3)C(=O)N2C1C(=O)O (stereo not drawn) ?
Result: inactive

Query: Hi, sorry to bother you, what did the test record for CO/N=C(/C(=O)N[C@@H]1C(=O)N2C(C(=O)O)=C(CSC(=O)c3ccco3)CSC12)c1csc(N)n1 (stereo partly drawn) ?
Result: inactive

Query: Tell me the assay call for C=CCn1c(=O)n(C2OC(CO)C(O)C2O)c2nc(N)[nH]c(=O)c21 (stereo not drawn) please.
Result: inactive

Query: Which outcome was assigned to CC(C)C(=O)OCC(=O)[C@@]12OC(C3CCCCC3)O[C@@H]1CC1C3CCC4=CC(=O)C=C[C@]4(C)C3[C@@H](O)C[C@@]12C (stereo partly drawn) in this test?
Result: active

Query: For Cc1c(C)c2c(c(C)c1O)CCC(C)(CCCC(C)CCCC(C)CCCC(C)C)O2 (stereo not drawn) , what call appears in the results of this test?
Result: inactive

Query: Give the logged outcome of this assay for the following compound: CC1(C(=O)O)CCC2(C)CCC3(C)C(=CC(=O)C4C5(C)CCC(O)C(C)(C)C5CCC43C)C2C1 (stereo not drawn)
Result: inactive

Query: // param item: Cc1ccc(S(=O)(=O)NC(=O)NC(C)Cc2ccccc2)cc1 (stereo not drawn) ; yields the recorded call
Result: inactive

Query: Just curious, what result did C[C@H]1OC(OC2C(O)[C@@H](O)C(OC3C(O)[C@@H](O)C(O)O[C@@H]3CO)O[C@@H]2CO)[C@H](O)C(O)C1N[C@H]1C=C(CO)[C@@H](O)[C@H](O)C1O (stereo partly drawn) get here?
Result: inactive

Query: recorded result category for CC(=O)C1(O)Cc2c(O)c3c(c(O)c2C(OC2CC(N)C(O)C(C)O2)C1)C(=O)c1c(O)cccc1C3=O (stereo not drawn) in this test
Result: active

Source listed as PubChem BioAssay (NCATS).
